Target: human CD33 (human, UniProt P20138 18-364)
Sequence (P20138 18-364): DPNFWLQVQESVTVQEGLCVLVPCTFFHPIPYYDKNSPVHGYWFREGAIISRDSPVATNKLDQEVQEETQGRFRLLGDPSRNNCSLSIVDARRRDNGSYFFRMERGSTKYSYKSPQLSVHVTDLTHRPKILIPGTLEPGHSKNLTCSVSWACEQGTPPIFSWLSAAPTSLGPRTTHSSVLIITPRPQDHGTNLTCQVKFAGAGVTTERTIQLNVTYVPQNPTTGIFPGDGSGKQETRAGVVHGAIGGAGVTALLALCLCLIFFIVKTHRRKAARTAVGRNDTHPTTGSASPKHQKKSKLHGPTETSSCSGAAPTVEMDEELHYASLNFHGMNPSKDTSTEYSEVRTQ
Test: cell-based or functional assay
Recorded measurements of Percent CD33 Surface Expression, Monocyte % CD33, one per entry
Kindly answer with a numeric value in %, unit omitted.

C-65 (antibody, V domains shown, human IgG1) VH: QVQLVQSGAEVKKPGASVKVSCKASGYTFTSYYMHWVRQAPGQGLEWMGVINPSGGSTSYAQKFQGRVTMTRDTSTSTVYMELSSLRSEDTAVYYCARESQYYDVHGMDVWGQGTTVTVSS VL: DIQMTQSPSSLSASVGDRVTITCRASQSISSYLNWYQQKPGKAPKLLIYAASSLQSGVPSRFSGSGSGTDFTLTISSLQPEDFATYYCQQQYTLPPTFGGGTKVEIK	31.2

Field: next binder
Request: Write down Percent CD33 Surface Expression, Monocyte % CD33 measured for item C-11 (antibody, V domains shown, human IgG1) VH: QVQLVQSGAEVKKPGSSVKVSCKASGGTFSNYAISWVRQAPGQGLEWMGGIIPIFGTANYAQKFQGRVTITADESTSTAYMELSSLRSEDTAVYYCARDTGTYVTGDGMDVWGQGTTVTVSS VL: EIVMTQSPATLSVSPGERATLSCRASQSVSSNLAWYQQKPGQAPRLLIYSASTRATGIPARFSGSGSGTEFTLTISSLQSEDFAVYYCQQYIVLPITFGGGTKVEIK
Result: 41.3

The origin of these recorded values is patent US20220281976A1.
